study-system: 18-kDa Translocator Protein (TSPO) (Homo sapiens, UniProt P30536, T147A)
Sequence (P30536 2-169 T147A): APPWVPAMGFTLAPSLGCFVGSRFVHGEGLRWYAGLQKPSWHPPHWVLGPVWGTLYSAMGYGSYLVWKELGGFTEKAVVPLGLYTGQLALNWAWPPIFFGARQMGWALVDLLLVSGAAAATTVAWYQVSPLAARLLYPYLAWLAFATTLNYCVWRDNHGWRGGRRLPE
assay-explanation: radioligand competition against [3H]PK11195 in human platelet membranes
pKi: −log10 of the molar value.
result-type: pKi

> print(dat)
                        structure.string  result.type  result.number
1  COc1ccccc1CN(C(C)=O)c1cnccc1Oc1ccccc1          pKi           8.66
